As shown below, each of these molecules has a reported z-score value.
- test.name: MM1S myeloma cell viability, profiling panel, resazurin fluorescence, basal, 24 h, PK04 Diversity Set (AID 1174);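 note: MM1S multiple myeloma cell line; test concentration not given here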
- condition.parameters: higher = more signal, called active from +8 up or from −8 down
Answer with a number only.

>  <molecule>
CO[C@H]1COC(=O)CC=C[C@H](C)[C@@H](OC)COC(=O)[C@H](Cc2ccccc2)NC(=O)CC=C[C@@H]1C

>  <result>
1

$$$$
>  <molecule>
COc1ccc(C(O)C2C=CC3C(=O)N(C)C(=O)C3N2N2CCCCC2)cc1OCc1ccccc1 (stereo not drawn)

>  <result>
0.0046

$$$$
>  <molecule>
Cc1ccccc1C(O)C1C=CC2C(=O)N(c3ccccc3)C(=O)C2N1Nc1ccc(C#N)cc1 (stereo not drawn)

>  <result>
0.132

$$$$
>  <molecule>
O=C/C=C/c1ccc(/C=C/c2ccccc2)cc1

>  <result>
0.408

$$$$

Asked: Could you tell me which z-score is on file for CCC1=C2CN(Cc3ccccc3Br)[C@@H]([C@@H](O)Cc3ccccc3)C2C=CCC1 (stereo partly drawn) ?
Given back: -1.3

Asked: Queued: CCN1C(C)=C(C(=O)OC)[C@@H](c2ccccc2)N2C(=O)[C@](O)(C(=O)OC)[C@@H](c3ccccc3)C(C(=O)c3ccccc3)=C12
Given back: 1.06

Asked: CC1=C([C@H](O)CCc2ccccc2)[C@H](CO)[C@@H]2C(=O)N(Cc3ccccc3)C(=O)[C@@H]2C1 , same question.
Given back: 0.169

Asked: What do we get for Cc1ccc(S(=O)(=O)N2[C@@H](c3ccccc3)C(C(=O)O)=CC[C@H]2c2ccccc2)cc1 ?
Given back: -2.14
